Below, each entry is listed alongside its reported kinact/KI.
Target: recombinant LSD1 (Homo sapiens, UniProt O60341)
Construct: made in house
Assay: LSD1 horseradish peroxidase coupled enzyme assay, time-dependent inactivation kinetics
Assay type: biochemical
Settings: LSD1 inactivation
reported metric: kinact/KI

1. C#CCNCc1ccc(Oc2ccccc2)cc1 [Compound 2c] :: < 0.3 M⁻¹ s⁻¹
2. C#CCNCc1ccccc1 [Compound 2a] :: < 0.6 M⁻¹ s⁻¹
3. C#CCN(C)Cc1ccccc1 [pargyline] :: < 0.2 M⁻¹ s⁻¹
4. C#CCNCc1ccc(OC(C)C)cc1 [Compound 2b] :: < 0.8 M⁻¹ s⁻¹
